# System: Staphylococcus aureus Mu50 (ATCC 700699)
readout name: MIC

Here's what some known entries look like.
compound	MIC
CC(C)CCOc1ccc2ccccc2c1-c1c(OCC(=O)N[C@H](CCCCN)C(=O)N[C@H](CCCNC(=N)N)C(=O)N[C@H](COCc2ccccc2)CC(C)C)ccc2ccccc12.Cl.Cl (atropisomer, axis not shown)	0.99 to 15.6 µg/mL
CC(C)CCOc1ccc2ccccc2c1-c1c(OCC(=O)N[C@H](CCCCN)C(=O)N[C@H](CCCNC(=N)N)C(=O)NC2(C(=O)OCc3ccccc3)CCCCC2)ccc2ccccc12.Cl.Cl (atropisomer, axis not shown)	0.99 to 15.6 µg/mL

Turning now to a further compound:
query: Supply reported MIC belonging to this compound: CC(C)CCOc1ccc2ccccc2c1-c1c(OCC(=O)N[C@H](CCCCN)C(=O)N[C@H](CCCNC(=N)N)C(=O)N[C@@H](CC(C)C)c2ncc(-c3ccccc3)o2)ccc2ccccc12.Cl.Cl (atropisomer, axis not shown)
result: 0.99 to 15.6 µg/mL
